- Run Description: chemical genetic growth profiling, strain panel (AID 1159580);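 also: tested at 20 µM; growth read once vehicle control cultures reached saturation at 30 °C; 1 = growth at the plate median or of vehicle wells; lower values mean less growth of the strain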
- Experimental Setup: S. cerevisiae deletion strains, growth OD, locus YDR101C, strain arx1, stronger effect = lower value
The whole screen tested about 5,500 compounds, of which about 2,000 (36%) were called active. Not shown: some 18% with an inconclusive outcome. The list shows a part of the results.
Provide the reported normalized growth of each item.
Reply: number alone, nothing else.

For the compound C=C1C2CC[C@@]3(C)[C@H](c4ccoc4)OC(=O)C[C@]13O[C@H]1CC(=O)C(C)(C)C(CC(=O)OC)[C@@]21C (some centres undefined) , report normalized growth.
0.986

For the compound `O=C(O)c1ccccc1C(=O)Nc1ccc(S(=O)(=O)Nc2nccs2)cc1` , report normalized growth.
0.984

For the compound NCC(CC(=O)O)c1ccc(Cl)cc1 (centres undefined) , report normalized growth.
0.979

For the compound `CCN(CC)CCOC(=O)C(c1ccccc1)c1ccccc1` , report normalized growth.
1.01

For the compound COC(=O)CCC(=O)O[C@H]1CCC2(C)C(CCC3C2C(=O)[C@@H](O)C2(C)C3CC3OC4(CCC(C)CO4)[C@@H](C)C32)C1 (some centres undefined) , report normalized growth.
0.997

For the compound Cc1cc(C)cc(OCC2CNC(=O)O2)c1 (centres undefined) , report normalized growth.
1.01

For the compound CC1CCC2(OC1)OC1CC3C4CCC5C[C@@H](O)CCC5(C)C4=CCC3(C)C1[C@@H]2C (some centres undefined) , report normalized growth.
1.01

For the compound CC1CC2C3CC(F)C4=CC(=O)C=CC4(C)C3(F)C(O)CC2(C)C1C(=O)COC(=O)C(C)(C)C (centres undefined) , report normalized growth.
1.02

For the compound C=C1C2=CC(=O)O[C@@H](c3ccoc3)[C@]2(C)CCC1[C@@]1(C)C=CC(=O)C(C)(C)[C@@H]1CC(=O)OC (some centres undefined) , report normalized growth.
0.958

For the compound CCCCCC1C(=O)CCC1CC(=O)OC (centres undefined) , report normalized growth.
0.96

For the compound `COc1cc(C)c(C(=O)Oc2cc(C)c(C(=O)O)c(O)c2C)c(OC)c1C` , report normalized growth.
1.01

For the compound `NNCCc1ccccc1` , report normalized growth.
0.985

For the compound `CN1CCN(C2=Nc3ccccc3Oc3ccc(Cl)cc32)CC1` , report normalized growth.
0.994

For the compound `Cc1nc2sccn2c(=O)c1CCN1CCC(=C(c2ccc(F)cc2)c2ccc(F)cc2)CC1` , report normalized growth.
0.945

For the compound `c1ccc2c(c1)CN1CCCC1=N2` , report normalized growth.
0.978

For the compound CC(=O)O[C@H]1CC[C@]2(C)C3=CC(=O)[C@@]4(C)C(C[C@@H]5OC6(OCC(C)CC6Br)[C@@H](C)[C@@H]54)C3CC[C@H]2C1 (some centres undefined) , report normalized growth.
1.02

For the compound `C[C@@H](N)[C@@H](O)c1ccccc1` , report normalized growth.
0.989

For the compound Cc1cc(O)c(C=O)c2c1C(=O)Oc1c(C)c(O)c3c(c1O2)C(O)OC3=O (centres undefined) , report normalized growth.
0.994

For the compound `O=c1[nH]cnc2[nH]ncc12` , report normalized growth.
1

For the compound `COc1ccc(C(=O)CC(=O)c2ccc(C(C)(C)C)cc2)cc1` , report normalized growth.
1

For the compound CC[C@H](CCC(C)[C@H]1CCC2C3CCC4C[C@@H](O)CC[C@]4(C)C3CC[C@@]21C)C(C)C (some centres undefined) , report normalized growth.
1.01

For the compound COC(=O)CCC(C)[C@H]1CCC2C3C(C[C@H](O)[C@@]21C)[C@@]1(C)CC[C@@H](O)C[C@H]1C[C@H]3O (some centres undefined) , report normalized growth.
1.01

For the compound `NC(N)=O` , report normalized growth.
0.997

For the compound `N#C/C(=C\c1cccc(O)c1)C(=O)O` , report normalized growth.
1.01

For the compound CC(CCC(=O)O)[C@H]1CCC2C3CC[C@@H]4C[C@H](O)CC[C@]4(C)C3C[C@H](O)[C@@]21C (some centres undefined) , report normalized growth.
1.01

For the compound `Nc1ccncc1` , report normalized growth.
0.972

For the compound CC(=O)O[C@H]1CC[C@]2(C)C3C(=O)[C@@H](OC(C)=O)[C@@]4(C)C(C[C@@H]5O[C@]6(CCC(C)CO6)[C@@H](C)[C@@H]54)C3CC[C@H]2C1 (some centres undefined) , report normalized growth.
1.01

For the compound C[C@@H]1O[C@@H](O[C@H]2C[C@@H](O)[C@]3(CO)C4C(CC[C@]3(O)C2)[C@@]2(O)CC[C@H](C3=CC(=O)OC3)[C@@]2(C)C[C@H]4O)[C@H](O)[C@H](O)[C@H]1O (some centres undefined) , report normalized growth.
0.994

For the compound C[C@@H]1CC2C3C[C@H](F)C4=CC(=O)C=C[C@]4(C)[C@@]3(F)[C@@H](O)C[C@]2(C)[C@@]1(O)C(=O)COC(=O)C(C)(C)C (some centres undefined) , report normalized growth.
0.97

For the compound `CCCCSP(=O)(SCCCC)SCCCC` , report normalized growth.
1.01

For the compound `O=C(Nc1ccccc1)Nc1ccccc1` , report normalized growth.
0.983

For the compound `CN(C)N=Nc1nc[nH]c1C(N)=O` , report normalized growth.
1.01

For the compound CC(CCC(=O)O)[C@H]1CCC2C3C[C@H](O)[C@@H]4C[C@H](O)CC[C@]4(C)C3CC[C@@]21C (some centres undefined) , report normalized growth.
1.04

For the compound CC(C)CCCC(C)C1CCC2C3CC[C@H]4CCCC[C@]4(C)C3CC[C@]12C (some centres undefined) , report normalized growth.
0.99

For the compound `Cc1cc(O)c(C)c2c1C(=O)Oc1c(C)c(O)c(C(=O)O)c(C)c1O2` , report normalized growth.
0.974

For the compound `CN(C(=O)CN(CCO)CC(=O)N(C)C(C)(C)Cc1ccccc1)C(C)(C)Cc1ccccc1` , report normalized growth.
1

For the compound `C=C1[C@H]2CC[C@@]3(C)[C@H](c4ccoc4)OC(=O)C[C@]13O[C@H]1C[C@H](O)C(C)(C)[C@H](CC(=O)OC)[C@]12C` , report normalized growth.
1.01

For the compound CC(CCC(=O)O)[C@H]1CCC2C3CC[C@@H]4C[C@H](O)CC[C@]4(C)C3CC[C@@]21C (some centres undefined) , report normalized growth.
0.977

For the compound `COc1c(Cl)ccc(Cl)c1C(=O)O` , report normalized growth.
1.01

Sourced from PubChem BioAssay AID1159580
